Recorded IC (TGI) values for a group of compounds are listed next.
# Tested on: SK-MEL-2
# Procedure summary: panel of 60 human tumor cell lines, growth inhibition (Melanoma)
# Study conditions: Homo sapiens, SK-MEL-2, read-out: TGI
Enter the number, and then the unit.

{"columns": ["Compound", "Measured target", "Assay result"],
 "data": [
  ["C=C1C(=O)O[C@H]2[C@H]1CC/C(COC(=O)NCCN1CCOCC1)=C\\CC[C@@]1(C)O[C@@H]21 [JVM 57]", "SK-MEL-2", "29.4 µM"],
  ["C=C1C(=O)O[C@H]2[C@H]1CC/C(COC(=O)OCCN(C)C)=C\\CC[C@@]1(C)O[C@@H]21 [JVM 2-35]", "SK-MEL-2", "36.3 µM"],
  ["C=C1C(=O)O[C@H]2[C@H]1CC/C(COC(=O)OCCCN1CCCCC1)=C\\CC[C@@]1(C)O[C@@H]21 [JVM 2-26]", "SK-MEL-2", "25.1 µM"]
]}

Let me check: C=C1C(=O)O[C@H]2[C@H]1CC/C(COC(=S)n1ccnc1)=C\CC[C@@]1(C)O[C@@H]21 [JVM 66] , system SK-MEL-2, measured IC (TGI) is 39.6 µM

---

Listed here: compounds with reported CC50 for CAKI-1.
Use µM as the unit, but write only the number.

{"columns": ["Smiles data", "Unit descriptor", "CC50"],
 "data": [
  ["C=C1C(=O)O[C@H]2[C@H]1CC/C(COC(=O)N1CCN(C)CC1)=C\\CC[C@@]1(C)O[C@@H]21", "µM", 42.8],
  ["C=C1C(=O)O[C@H]2[C@H]1CC/C(COC(=O)CCC(=O)N1CCC(C)CC1)=C\\CC[C@@]1(C)O[C@@H]21", "µM", 36.2],
  ["C=C1C(=O)O[C@H]2[C@H]1CC/C(COC(=O)NCCN1CCCCC1)=C\\CC[C@@]1(C)O[C@@H]21", "µM", 40.4]
]}

# CC50 (compound: C=C1C(=O)O[C@H]2[C@H]1CC/C(COC(=O)N1CCC(F)(F)CC1)=C\CC[C@@]1(C)O[C@@H]21 ) is 23.8

Looking up C=C1C(=O)O[C@H]2[C@H]1CC/C(COC(=O)NC)=C\CC[C@@]1(C)O[C@@H]21 , I found its CC50 recorded as 36.6

compound C=C1C(=O)O[C@H]2[C@H]1CC/C(COC(=O)NCCO)=C\CC[C@@]1(C)O[C@@H]21 , CC50 observed: 73.8

---

# Test system: IGROV1
# Procedure summary: panel of 60 human tumor cell lines, growth inhibition (Ovarian Cancer)
# Study conditions: IGROVI; Log10 Concentration −5.0
Outcome measure: Percent Growth (%)
Give just the number in %; leave the unit off.

The following compounds have reported results that may help.
{"columns": ["Smiles data", "Unit descriptor", "Assay result"],
 "data": [
  ["C=C1C(=O)O[C@H]2[C@H]1CC/C(COC(=O)NCCc1ccccn1)=C\\CC[C@@]1(C)O[C@@H]21", "%", 72],
  ["C=C1C(=O)O[C@H]2[C@H]1CC/C(COC(=O)CCC(=O)N1CCC(C)CC1)=C\\CC[C@@]1(C)O[C@@H]21", "%", 19],
  ["C=C1C(=O)O[C@H]2[C@H]1CC/C(COC(=O)CCC(=O)NCc1ccc(Cl)nc1)=C\\CC[C@@]1(C)O[C@@H]21", "%", 79]
]}

What the record says about C=C1C(=O)O[C@H]2[C@H]1CC/C(COC(=O)N1CCC(F)(F)CC1)=C\CC[C@@]1(C)O[C@@H]21 : Percent Growth is −14
